TARGET_DESC: T1, human CD36 ectodomain (residues 35-439), C-terminal 8xHis and biotinylated BAP tag (human, UniProt P16671 35-439, biotin on the BAP tag (in vitro, BirA ligase))
T1 construct: CD36, human, ectodomain residues 35-439; Construct for SPR; vector pHLsec-8H; also called CD36 wild-type; w.t; source: HEK293T, purified (TALON, size-exclusion chromatography), biotinylated in vitro with BirA; not shown: BAP tag, C-terminal, kept
METHOD_SUMMARY: SPR; biotinylated CD36 (wild type or F153A) immobilised on a CAPture chip to ~700 RU; CIDRα domains as analytes, two-fold dilutions from 400 nM (Supplementary Figure 10: 400 nM only), 240 s injection, 300 s dissociation; 25 °C, 20 mM HEPES pH 7.5, 0.15 M NaCl, 0.005% Tween20; affinities from equilibrium binding, one site-binding model
ASSAY_CONTEXT: both partners purified
Reported pKd values for a set of binders
The read-out pKd is expressed as -log10 of concentration in moles per litre.

Observe how each entry below is paired with its result.
MCvar1 CIDRα2.8 domain (residues 576-745, C626S) D680N:N682T (domain or fragment, N-linked glycan at the introduced site on the majority of the protein, CIDRα2.8 domain of the MCvar1 PfEMP1, Plasmodium falciparum; Introduces an N-linked glycosylation site into site 2 of the crystal; also called site 2 mutant; site 2; source: HEK293, secreted, purified (TALON, size-exclusion chromatography)) EDKIMSYNAFFWMWVHDMLIDSIKWRDEHGRCINKDKGKTCIKGCNKKCISFQKWVEQKKTEWGKIKDHFRKQKDIPKDWTHDDFLQTLLMKDLLLEIIQDTYGNATEIKRIEALLEQAGVGGIDFAALAGLYTKGFVAEKDTTIDKLLQHEQKEADKCLKTHTDDTCPP    7.74
MCvar1 PfEMP1 CIDRα2.8 domain (residues 576-745, C626S) (domain or fragment, CIDRα2.8 domain of the MCvar1 PfEMP1, Plasmodium falciparum; the reverse cloning primer (D1:p11) ends at ...DTCPP; also called MCvar1 CIDRα2.8; MC179 CIDRα2.8; source: HEK293, secreted, purified (TALON, size-exclusion chromatography); for the crystal co-expressed with CD36 in the presence of kifunensine) EDKIMSYNAFFWMWVHDMLIDSIKWRDEHGRCINKDKGKTCIKGCNKKCISFQKWVEQKKTEWGKIKDHFRKQKDIPKDWTHDDFLQTLLMKDLLLEIIQDTYGDANEIKRIEALLEQAGVGGIDFAALAGLYTKGFVAEKDTTIDKLLQHEQKEADKCLKTHTDDTCPP    7.92

Enquiry: Fill blank: measured pKd of the binder MCvar1 CIDRα2.8 domain (residues 576-745, C626S) Q648A (domain or fragment, CIDRα2.8 domain of the MCvar1 PfEMP1, Plasmodium falciparum; source: HEK293, secreted, purified (TALON, size-exclusion chromatography)) EDKIMSYNAFFWMWVHDMLIDSIKWRDEHGRCINKDKGKTCIKGCNKKCISFQKWVEQKKTEWGKIKDHFRKAKDIPKDWTHDDFLQTLLMKDLLLEIIQDTYGDANEIKRIEALLEQAGVGGIDFAALAGLYTKGFVAEKDTTIDKLLQHEQKEADKCLKTHTDDTCPP is ____.
Return: 6.44

Enquiry: Fill blank: measured pKd of the binder MCvar1 CIDRα2.8 domain (residues 576-745, C626S) F660N:Q662T (domain or fragment, N-linked glycan at the introduced site on a small fraction of the protein, CIDRα2.8 domain of the MCvar1 PfEMP1, Plasmodium falciparum; Introduces an N-linked glycosylation site into site 1 of the crystal; also called site 1 mutant; site 1; source: HEK293, secreted, purified (TALON, size-exclusion chromatography)) EDKIMSYNAFFWMWVHDMLIDSIKWRDEHGRCINKDKGKTCIKGCNKKCISFQKWVEQKKTEWGKIKDHFRKQKDIPKDWTHDDNLTTLLMKDLLLEIIQDTYGDANEIKRIEALLEQAGVGGIDFAALAGLYTKGFVAEKDTTIDKLLQHEQKEADKCLKTHTDDTCPP is ____.
Return: 6.51

Enquiry: Fill blank: measured pKd of the binder MCvar1 CIDRα2.8 domain (residues 576-745, C626S) E672A (domain or fragment, CIDRα2.8 domain of the MCvar1 PfEMP1, Plasmodium falciparum; source: HEK293, secreted, purified (TALON, size-exclusion chromatography)) EDKIMSYNAFFWMWVHDMLIDSIKWRDEHGRCINKDKGKTCIKGCNKKCISFQKWVEQKKTEWGKIKDHFRKQKDIPKDWTHDDFLQTLLMKDLLLAIIQDTYGDANEIKRIEALLEQAGVGGIDFAALAGLYTKGFVAEKDTTIDKLLQHEQKEADKCLKTHTDDTCPP is ____.
Return: 7.07
